Measured composite z-score, listed per entry.
# System: Noggin (protein binding on small-molecule microarray)
# experiment summary: Noggin binders on small-molecule microarray, primary screen, biochemical, 635/667 nm fluorescence (AID 1095);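 note: score merges 667 nm feature fluorescence with signal to noise over triplicate slides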
# test parameters: 635 nm fluorescence, higher = more signal
outcome measure: composite z-score

1) CC(C)[C@@H](OCc1ccccc1)[C@H](C)C=NO[C@H](C)c1cn([C@@H]2COC[C@H]2O)nn1 = 0.871
2) CCN1C(=O)[C@H]2[C@H]3[C@H](O)[C@H](O)CC(=NO[C@@H]4O[C@H](COC(C)=O)[C@@H](OC(C)=O)[C@H](OC(C)=O)[C@H]4OC(C)=O)[C@@H]3CC[C@H]2C1=O = 0.597
3) COC(=O)CC=C[C@@H](C)[C@@H](C=NOC[C@@H](C)[C@H](OCc1ccccc1)C(C)C)NS(=O)(=O)c1ccc(C)cc1 = 0.452
4) COC(=O)[C@@H]1CC[C@H](C)[C@@H](c2ccc(Br)cc2)N1 = -0.265
5) CO[C@H]1COC(=O)CC=C[C@H](C)[C@H](OC)COC(=O)[C@@H](C)NC(=O)CC=C[C@@H]1C = 1.61
6) Cc1ccc(S(=O)(=O)N[C@@H]2COC(=O)CC=C[C@@H](C)[C@H](NS(=O)(=O)c3ccc(C)cc3)COC(=O)[C@H](C)NC(=O)CC=C[C@H]2C)cc1 = 0.354
7) C[C@H]1CC[C@@H](C(=O)O)N[C@@H]1c1ccc(C#Cc2ccccc2)cc1 = 0.875

====

# experiment summary: compound binding in COS7 lysate, probe aLAP1, primary screen, cell lysate, small-molecule microarray (AID 1124);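 note: lysate comes from COS7 cells expressing LAP1 and is applied at 0.3 µg/mL; score merges spot fluorescence near 667 nm with signal-to-noise over triplicate slides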
# test parameters: probe aLAP1, fluorescence, higher = more signal
outcome measure: composite z-score

1. CCOC(=O)[C@H](CC(C)C)NC(=O)CCC1CC(OC(=O)NCc2ccc3c(c2)OCO3)CC2(CCCC(COC(=O)NCCOc3ccccc3)O2)O1 (some centres undefined) = -0.248
2. CON=C[C@@H](OC)[C@H](C)C=CCC(=O)OC = -0.195
3. COc1ccc(O[C@H]2C=C[C@@H](c3ccccc3)O[C@@H]2COC(=O)CCC(C)=NOC[C@@H](O)COCc2ccco2)cc1 = -0.875
4. CC(=O)OC[C@H]1O[C@H](CC=NOC[C@@H](O)[C@H]2O[C@@H]3OC(C)(C)O[C@@H]3[C@H]2O)C=C[C@@H]1OC(C)=O = 0.79

====

# target of assay: NADPH oxidase 2 (Homo sapiens) (UniProt P04839)
# Sequence (P04839 whole entry, looked up): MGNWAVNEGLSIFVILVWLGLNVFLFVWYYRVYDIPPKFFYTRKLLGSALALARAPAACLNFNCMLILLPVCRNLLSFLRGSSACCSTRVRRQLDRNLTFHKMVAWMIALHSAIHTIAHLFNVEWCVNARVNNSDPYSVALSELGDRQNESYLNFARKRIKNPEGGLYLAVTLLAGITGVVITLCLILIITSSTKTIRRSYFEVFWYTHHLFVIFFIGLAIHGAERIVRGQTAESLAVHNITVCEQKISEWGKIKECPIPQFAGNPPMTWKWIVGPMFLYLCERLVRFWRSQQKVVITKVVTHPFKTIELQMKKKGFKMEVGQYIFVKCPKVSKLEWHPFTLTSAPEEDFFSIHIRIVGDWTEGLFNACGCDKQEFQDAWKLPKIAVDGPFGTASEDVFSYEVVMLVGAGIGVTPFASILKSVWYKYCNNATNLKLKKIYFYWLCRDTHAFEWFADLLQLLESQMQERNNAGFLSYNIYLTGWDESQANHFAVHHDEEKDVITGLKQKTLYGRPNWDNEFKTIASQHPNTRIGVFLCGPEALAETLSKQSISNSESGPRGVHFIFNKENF
# experiment summary: NOX2-dependent H2O2 signal modulators, primary screen, NOX inhibitor project, cell-based, HEK293-NOX2, PMA-stimulated, Amplex Red fluorescence (AID 1159); note: test concentration not given here
# test parameters: 45 min, higher = more signal, called active from +8 up or from −8 down
Classification field: T = z-score at or over 0.7; F = z-score under 0.7.

1) O=C(NN=C1C[C@@H](O)[C@@H](O)[C@@H]2[C@@H]3C(=O)N(Cc4ccccc4)C(=O)[C@@H]3CC[C@H]12)OCc1ccccc1 = T
2) CO[C@@H](C1CCCCC1)[C@@H](C)[C@H](OCc1cccc(Br)c1)[C@@H](C)CO = F
3) CC(C)[C@@H](OCc1ccccc1)[C@H](C)C=NO[C@H](C)c1cn([C@@H]2COC[C@H]2O)nn1 = F
4) C[C@]12CCC3c4ccc(OCC5CO5)cc4CCC3C1CC[C@@H]2O (some centres not stated) = T
5) C#CCCCON=C1C[C@@H](O)[C@@H](O)[C@@H]2[C@@H]3C(=O)N([C@@H](C)c4ccccc4)C(=O)[C@@H]3CC[C@@H]12 = F
6) CCOC(=O)[C@H](CC(C)C)NC(=O)CCC1CC(OC(=O)NCc2ccc3c(c2)OCO3)CC2(CCCC(COC(=O)NCCc3ccc(Cl)cc3)O2)O1 (some centres not stated) = T
7) CC(CCC(=O)OC[C@H]1O[C@H](C#Cc2ccccc2)C=C[C@@H]1Oc1ccc(C)cc1)=NOC[C@@H](C)[C@H](OCc1ccccc1)C(C)C = T

====

# experiment summary: CREB reporter modulators under forskolin, primary screen, cell-based, PC12, CRE-LacZ reporter, forskolin-stimulated (AID 1146);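 note: PC12 cells with 6xCRE LacZ reporter stimulated by forskolin 10 µM; beta-galactosidase reporter signal reflecting CREB driven transcription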
# test parameters: luminescence, 4.5 h, higher = more signal, called active from +8 up or from −8 down
outcome measure: z-score

1. COC(=O)CC=C[C@@H](C)[C@@H](C=NOC[C@@H](C)[C@H](OCc1ccccc1)C(C)C)NS(=O)(=O)c1ccc(C)cc1 = 0.447
2. O=C(NN=C1C[C@@H](O)[C@@H](O)[C@@H]2[C@@H]3C(=O)N(c4ccc(F)cc4F)C(=O)[C@@H]3CC[C@H]12)OCc1ccccc1 = 0.139
3. CCCNC(=O)OC[C@H]1O[C@H](CCON=C2C[C@@H](O)[C@@H](O)[C@@H]3[C@@H]4C(=O)N(CC)C(=O)[C@@H]4CC[C@@H]23)C=C[C@@H]1Oc1ccc(OC)cc1 = 0.23
4. COC(=O)[C@H](C)NC(=O)CCC1CC(OC(=O)NCc2ccc3c(c2)OCO3)CC2(CCCC(COC(=O)NCCc3ccc(Cl)cc3)O2)O1 (some centres not stated) = 0.336
5. COC(=O)[C@H](C)NC(=O)CCC1CC(OC(=O)NCc2cccc3ccccc23)CC2(CCCC(COC(=O)NCCc3ccccc3OC)O2)O1 (some centres not stated) = 0.684
6. CCN1C(=O)[C@H]2[C@H]3[C@H](O)[C@H](O)CC(=NOCC=C(C)CCC=C(C)C)[C@@H]3CC[C@H]2C1=O = -0.157
7. Cc1cc2c(nc1C)CCCCN2CC(O)CN1CCCc2nc(-c3ccc(Br)cc3)ccc21 (configuration not stated) = 0.597

====

Here, each record is paired with measured z-score data.
# experiment summary: S. cerevisiae growth modulation with rapamycin, primary screen, strain BY4716, OD600, 96 h (AID 1091); note: test concentration not given here
# test parameters: higher = more signal, called active from +8 up or from −8 down
outcome measure: z-score

1) CCN1C(=O)[C@H]2[C@H]3[C@H](O)[C@H](O)CC(=NO[C@@H]4O[C@H](CO)[C@@H](O)[C@H](O)[C@H]4O)[C@H]3CC[C@H]2C1=O = -0.14
2) CCOC(=O)[C@H](Cc1ccccc1)NC(=O)CCC1CC(OC(=O)NCc2cccc3ccccc23)CC2(CCCC(COC(=O)NCC3CCCCC3)O2)O1 (stereo partly drawn) = -0.445
3) COc1ccc(O[C@H]2C=C[C@@H](C#Cc3ccccc3)O[C@@H]2CO)cc1 = -0.731

====

# target of assay: Alpha-bungarotoxin (Bungarus multicinctus)
# experiment summary: alpha-bungarotoxin binders on microarray, profiling panel, artefact control for SMM control protein annotation, biochemical, small-molecule microarray, Alexa647 label, 635/667 nm fluorescence (AID 1117)
# test parameters: alpha-BTX-A647 binding fluorescence, higher = more signal
outcome measure: composite z-score

1) CC(CCN1CCCc2nc(C)c(C)cc21)=NO[C@H](C)c1cn([C@H](CO)Cc2ccccc2)nn1 = -0.207
2) COC(=O)[C@@H]1CC[C@H](C)[C@@H](c2ccc(Br)cc2)N1C[C@H](O)CN=[N+]=[N-] = 0.426
3) COc1ccc(COC(=O)NN=C2C[C@@H](O)[C@@H](O)[C@@H]3[C@@H]4C(=O)N([C@@H](C)c5ccccc5)C(=O)[C@@H]4CC[C@@H]23)cc1 = 0.0288
4) COC(=O)[C@H](C)NC(=O)CCC1CC(OC(=O)NCc2ccc3c(c2)OCO3)CC2(CCCC(COC(=O)NCCC(C)C)O2)O1 (some centres not stated) = 1.48
5) O=C1[C@H]2[C@H]3[C@H](O)[C@H](O)CC(=NOCc4ccccc4)[C@@H]3CC[C@H]2C(=O)N1c1cccc(Oc2ccccc2)c1 = 0.626
6) Cc1ccc(S(=O)(=O)N[C@@H]2COC(=O)CC=C[C@@H](C)[C@H](NS(=O)(=O)c3ccc(C)cc3)COC(=O)[C@H](C)NC(=O)CC=C[C@H]2C)cc1 = -0.621
7) CO[C@@H]1COC(=O)CC=C[C@H](C)[C@H](OC)COC(=O)[C@@H]2CCCN2C(=O)CC=C[C@H]1C = -0.324

====

# experiment summary: compound binding in COS7 lysate, probe aLAP1, primary screen, cell lysate, small-molecule microarray (AID 1124);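 note: lysate comes from COS7 cells expressing LAP1 and is applied at 0.3 µg/mL; score merges spot fluorescence near 667 nm with signal-to-noise over triplicate slides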
# test parameters: probe aLAP1, fluorescence, higher = more signal
composite z-score below 0.06 gives class 0; composite z-score at or above it gives class 1.

1) O=C1C[C@@H](O)[C@@H](O)[C@@H]2[C@@H]3C(=O)N(C4CCCCC4)C(=O)[C@@H]3CC[C@@H]12 = class 0
2) CCOC(=O)CCN1C(=O)[C@H]2[C@H]3[C@H](O)[C@H](O)CC(=NNC(=O)OCc4ccc(OC)cc4)[C@H]3CC[C@H]2C1=O = class 0
3) COc1ccc(OC[C@H]2CN3[C@@H](CC[C@@H](C)[C@@H]3c3ccc(Br)cc3)C(=O)O2)cc1 = class 1
4) O=C1C2=CC[C@H]3C(=O)N(C[C@@H]4CCCO4)C(=O)[C@H]3[C@H]2[C@H](O)[C@@H]2O[C@H]12 = class 0
5) CCN1C(=O)[C@H]2[C@H]3[C@H](O)[C@H](O)CC(=NNC(=O)OCc4ccccc4)[C@H]3CC[C@H]2C1=O = class 0
6) CC(C)=CCCC(C)=CCON=C1[C@H]2CCn3c(=O)n(-c4ccccc4)c(=O)n3[C@H]2[C@H](O)[C@@H]2O[C@H]12 = class 1
7) CC(CCC(=O)OC[C@H]1O[C@H](C#Cc2ccccc2)C=C[C@@H]1Oc1ccc(C)cc1)=NOC[C@@H](C)[C@H](OCc1ccccc1)C(C)C = class 0
8) CC(CCC(=O)OC[C@H]1O[C@H](C#Cc2ccccc2)C=C[C@@H]1Oc1ccc(C)cc1)=NO[C@H](C)c1cn([C@@H]2COC[C@H]2O)nn1 = class 0
9) CC(C)(C)N1C(=O)[C@H]2[C@H]3[C@H](O)[C@H](O)CC(=NOC[C@@H](O)COCc4ccco4)[C@H]3CC[C@H]2C1=O = class 1
10) COC(=O)[C@H](C)NC(=O)CCC1CC(OC(=O)NCCc2ccc(F)cc2)CC2(CCCC(COC(=O)NCC3CCCCC3)O2)O1 (stereo not given in full) = class 1
11) Cc1ccc2[nH]c3nc(CCCn4ccnc4-c4ccccc4)nnc3c2c1 = class 0
12) C[C@]12CCC3c4ccc(OCC5CO5)cc4CCC3C1CC[C@@H]2O (stereo not given in full) = class 1
13) CC(CCN1CCCc2nc(C)c(C)cc21)=NO[C@H](C)c1cn([C@H](CO)Cc2ccccc2)nn1 = class 0
14) CC(CCC(=O)OC[C@H]1O[C@H](C#Cc2ccccc2)C=C[C@@H]1Oc1ccc(C)cc1)=NO[C@@H](C)c1cc(-c2c(C)cc(C)cc2C)no1 = class 1
15) CSCC[C@@H]1NC(=O)CC=C[C@@H](C)COC(=O)[C@H](C)COC1=O = class 0
